The measured values listed here are drawn from ChEMBL document CHEMBL1150942.

# Tested on: H9 cells (Homo sapiens)
# experiment.description: Cytotoxicity against human H9 cells after 4 days
# condition.info: Homo sapiens, H9, 96 h; read-out: IC50
recorded.metric: IC50
The number alone won't do; follow it with the unit.

# annotated cases, reported IC50 shown
[
  {
    "compound": "CC1(C)CC[C@]2(C(=O)O)CC[C@]3(C)C(=CC[C@@H]4[C@@]5(C)CC[C@H](OC(=O)COCC(=O)O)C(C)(C)[C@@H]5CC[C@]43C)[C@@H]2C1",
    "IC50": "22.1 µg/mL"
  },
  {
    "compound": "CC1(C)CC[C@]2(C(=O)O)CC[C@]3(CO)C(=CC[C@@H]4[C@@]5(C)CC[C@H](O)C(C)(C)[C@@H]5CC[C@]43C)[C@@H]2C1",
    "IC50": "25 µg/mL"
  },
  {
    "compound": "CC1(C)CC[C@]2(C(=O)O)CC[C@]3(C)C(=CC[C@@H]4[C@@]5(C)CC[C@H](OC(=O)C(C)(C)CC(=O)O)C(C)(C)[C@@H]5CC[C@]43C)[C@@H]2C1",
    "IC50": "9.7 µg/mL"
  }
]

Q: Any idea what IC50 was measured for "C[C@@H]1CC[C@]2(C(=O)O)CC[C@]3(C)C(=CC[C@@H]4[C@@]5(C)CC[C@H](O)C(C)(C)[C@@H]5CC[C@]43C)[C@@H]2[C@]1(C)O" ?
Result: 23.3 µg/mL

Q: Any idea what IC50 was measured for "CC(C)(CC(=O)O)CC(=O)O[C@H]1CC[C@]2(C)[C@H]3CC=C4[C@@H]5CC(C)(C)CC[C@]5(C(=O)O)CC[C@@]4(C)[C@]3(C)CC[C@H]2C1(C)C" ?
Result: 14.2 µg/mL

Q: Any idea what IC50 was measured for "CC1(C)CC[C@]2(C(=O)O)CC[C@]3(C)C(=CC[C@@H]4[C@@]5(C)CC[C@H](OC(=O)CC6(CC(=O)O)CCCC6)C(C)(C)[C@@H]5CC[C@]43C)[C@@H]2C1" ?
Result: 4.7 µg/mL

Q: Any idea what IC50 was measured for "CC1(C)CC[C@]2(C(=O)O)CC[C@]3(C)C(=CC[C@@H]4[C@@]5(C)CCC(=O)C(C)(C)[C@@H]5CC[C@]43C)[C@@H]2C1" ?
Result: 0.8 µg/mL

Q: Any idea what IC50 was measured for "C[C@H]1[C@H](C)CC[C@]2(C(=O)O)CC[C@]3(C)C(=CC[C@@H]4[C@@]5(C)C[C@@H](O)[C@H](O)[C@@](C)(CO)[C@@H]5CC[C@]43C)[C@H]12" ?
Result: 9 µg/mL

Q: Any idea what IC50 was measured for CC1(C)CC[C@]2(C(=O)O)CC[C@]3(C)C(=CC[C@@H]4[C@@]5(C)CC[C@H](OC(=O)CCC(=O)O)C(C)(C)[C@@H]5CC[C@]43C)[C@@H]2C1 [OLEANOLIC ACID 3-O-SUCCINATE] ?
Result: 6.5 µg/mL

Q: Any idea what IC50 was measured for "CC1(C)CC[C@]2(C(=O)O)CC[C@]3(C)C(=CC[C@@H]4[C@@]5(C)CC[C@H](OC(=O)CCCC(=O)O)C(C)(C)[C@@H]5CC[C@]43C)[C@@H]2C1" ?
Result: 14.6 µg/mL
